assay: Plasma concentration versus time of Compound I and metabolite Compound III in patients dosed QD or BID with Form B of Compound II plus fulvestrant; type: in vivo, human; conditions: human, plasma, oral, 500 mg, 500 mg QD of Form B, Day 29, 8.0 h, Median; read-out: Compound I Concentration
Measured quantity: concentration at 8 h (ng/mL)
Express your answer in ng/mL, writing the number without its unit.

The compound CC(C)N1CCN(c2ccc(Nc3ncc4cc5n(c4n3)C3(CCCCC3)CNC5=O)nc2)CC1 [Compound I] showed concentration at 8 h equal to 33.5

====

Test: Pharmacokinetics of Compound I in healthy volunteers after a single dose of Form B of Compound II
Type: in vivo, human
Settings: human, blood, oral, single 200 mg dose of Form B of Compound II
Description: Table 84 provides the pharmacokinetic parameters of Compound I upon administration of a single dose of Form B of Compound II (48, 100, 200, 300, 400, or 600 mg) in healthy volunteers. Blood samples for analysis of Compound I were collected pre-dose and 0.25, 0.5, 1, 1.5, 2, 3, 4, 6, 8, 12, 24, 36, 48, 72, and 96 hours post-dose.
Measured quantity: Tmax (h)
Express your answer in h, writing the number without its unit.

The compound CC(C)N1CCN(c2ccc(Nc3ncc4cc5n(c4n3)C3(CCCCC3)CNC5=O)nc2)CC1 [Compound I] showed Tmax equal to 3

====

Experiment: Noncompartmental pharmacokinetic parameters (Cmax, Tmax, AUC, Racc) in QD and BID cohorts of Form B
Format: in vivo, human
Details: human, plasma, oral, 300 mg, Cohort 2, 300 mg QD of Form B, Day 1; read-out: Cmax, Mean
Protocol: Analysis of plasma concentration versus time data for calculation of standard pharmacokinetic (PK) parameters following oral administration was conducted using Phoenix WinNonlin version 6.3 using actual blood sampling times. […]
Measured quantity: Cmax (ng/mL)
Express your answer in ng/mL, writing the number without its unit.

The compound CC(C)N1CCN(c2ccc(Nc3ncc4cc5n(c4n3)C3(CCCCC3)CNC5=O)nc2)CC1 showed Cmax equal to 40.2

====

experiment: Plasma concentration versus time of Compound I and metabolite Compound III in patients dosed QD or BID with Form B of Compound II plus fulvestrant; type: in vivo, human; conditions: human, plasma, oral, 650 mg, Cohort 5, 650 mg QD of Form B, Day 29, 2.0 h; read-out: Compound I Concentration, Median
Measured quantity: concentration at 2 h
Record the result as a number with its unit.

The compound CC(C)N1CCN(c2ccc(Nc3ncc4cc5n(c4n3)C3(CCCCC3)CNC5=O)nc2)CC1 [Compound I] showed concentration at 2 h equal to 25.9 ng/mL

====

test: Plasma concentration versus time of Compound I and metabolite Compound III in patients dosed QD or BID with Form B of Compound II plus fulvestrant; assay type: in vivo, human; conditions: human, plasma, oral, 200 mg, 200 mg QD of Form B, Day 1, 8.0 h, Mean; read-out: Compound I Concentration
Measured quantity: concentration at 8 h (ng/mL)
Express your answer in ng/mL, writing the number without its unit.

The molecule CC(C)N1CCN(c2ccc(Nc3ncc4cc5n(c4n3)C3(CCCCC3)CNC5=O)nc2)CC1 [Compound I] showed concentration at 8 h equal to 11.6

====

experiment: Plasma concentration versus time of Compound I and metabolite Compound III in patients dosed QD or BID with Form B of Compound II plus fulvestrant; type: in vivo, human; conditions: human, plasma, oral, 200 mg, 200 mg QD of Form B, Day 1, 3.0 h, Median; read-out: Compound I Concentration
Measured quantity: concentration at 3 h (ng/mL)
Express your answer in ng/mL, writing the number without its unit.

The compound CC(C)N1CCN(c2ccc(Nc3ncc4cc5n(c4n3)C3(CCCCC3)CNC5=O)nc2)CC1 [Compound I] showed concentration at 3 h equal to 18.1
